Origin of the recorded values: PubChem BioAssay

Assignment: determine reported z-score for the given compounds.
# assay overview: yeast growth modulation, basal conditions, primary screen, YJM789 clinical isolate, OD600, 24 h (AID 1089);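 note: growth of clinical yeast isolate S. cerevisiae YJM 789 seeded 1000 cells per well; test concentration not given here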
# setup conditions: S. cerevisiae YJM789 growth, higher = more signal, called active from +8 up or from −8 down
Answers are plain numbers.

Provide z-score values for the following items, in order.
1. C[C@@H]1CC[C@@H](C(=O)O)N[C@H]1c1ccc(-c2ccco2)cc1
2. C[C@@H](c1ccccc1)N1C(=O)[C@H]2[C@H]3[C@H](O)[C@H](O)CC(=O)[C@@H]3CC[C@H]2C1=O
3. C=C(C)C(=O)OC[C@@H]1CN2[C@@H](CC[C@@H](C)[C@@H]2c2ccc(Br)cc2)C(=O)O1
4. CCOC(=O)NN=C1C[C@@H](O)[C@@H](O)[C@@H]2[C@@H]3C(=O)N(Cc4ccc5c(c4)OCO5)C(=O)[C@@H]3CC[C@@H]12
5. CC(C)CCN1CCc2nc(-c3ccccc3)c3c(c2C1)CO[C@@H](C)C3
6. CC(C)C(=O)N[C@@H]1CCCN1C(=O)C=Cc1ccccc1
7. CCOC(=O)[C@H](CC(C)C)NC(=O)CCC1CC(OC(=O)NCc2cccc3ccccc23)CC2(CCCC(COC(=O)NCc3ccccc3)O2)O1 (stereo not given in full)
8. CCN1C(=O)[C@H]2[C@H]3[C@H](O)[C@H](O)CC(=NNC(=O)OCc4ccc(OC)cc4)[C@H]3CC[C@H]2C1=O

Result:
[0.804, -2.24, -0.792, 0.282, -0.334, -0.91, -1.11, 0.523]

Provide z-score values for the following items, in order.
1. CO[C@@H]1COC(=O)CC=C[C@H](C)COC(=O)[C@H](C)NC(=O)CC=C[C@H]1C
2. C[C@@H](ON=C1[C@H]2CCn3c(=O)n(-c4ccccc4)c(=O)n3[C@H]2[C@H](O)[C@@H]2O[C@H]12)c1cn([C@H](CO)Cc2ccccc2)nn1

Result:
1.19
-0.217

* * *

# assay overview: small-molecule binders of probe aNOTCH3, primary screen, biochemical, small-molecule microarray, 635/667 nm fluorescence (AID 1120);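 note: probe is a biotin-tagged antibody raised against NOTCH3 rather than NOTCH3 protein; score merges spot fluorescence near 667 nm with spot signal to noise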
# setup conditions: higher = more signal
Classification field: t = composite z-score at or over -0.09; f = composite z-score under -0.09.

{"columns": ["compound", "category"],
 "data": [
  ["CCOC(=O)[C@H](CC(C)C)NC(=O)CCC1CC(OC(=O)NCc2cccc3ccccc23)CC2(CCCC(COC(=O)NCc3ccccc3)O2)O1 (stereo partly drawn)", "f"],
  ["CO[C@@H]1COC(=O)CC=C[C@H](C)COC(=O)[C@H](C)NC(=O)CC=C[C@H]1C", "f"],
  ["CCOC(=O)NN=C1C[C@@H](O)[C@@H](O)[C@@H]2[C@@H]3C(=O)N(Cc4ccccc4)C(=O)[C@@H]3CC[C@@H]12", "f"],
  ["CC(C)C(=O)N[C@@H]1CCCN1C(=O)C=Cc1ccccc1", "t"],
  ["COc1ccc(COC(=O)NN=C2C[C@@H](O)[C@@H](O)[C@@H]3[C@@H]4C(=O)N(C(C)(C)C)C(=O)[C@@H]4CC[C@H]23)cc1", "f"],
  ["CC(C)=CCCC(C)=CCON=C1C[C@@H](O)[C@@H](O)[C@@H]2[C@@H]3C(=O)N([C@@H](C)c4ccccc4)C(=O)[C@@H]3CC[C@H]12", "t"]
]}

Request: Check the entry C[C@@H]1CC[C@@H](C(=O)O)N[C@H]1c1ccc(-c2ccco2)cc1 : does composite z-score equal or exceed -0.09?
Result: t

Request: Check the entry O=C1[C@H]2[C@H]3[C@H](O)[C@H](O)CC(=NOCc4ccccc4)[C@H]3CC[C@H]2C(=O)N1Cc1ccccc1 : does composite z-score equal or exceed -0.09?
Result: f

Request: Check the entry CC(C)CCN1CCc2nc(-c3ccccc3)c3c(c2C1)CO[C@@H](C)C3 : does composite z-score equal or exceed -0.09?
Result: t

Request: Check the entry CCCNC(=O)OC[C@H]1O[C@H](CCON=C(C)CCC(=O)OC[C@H]2O[C@H](C#Cc3ccccc3)C=C[C@@H]2Oc2ccc(C)cc2)C=C[C@@H]1Oc1ccc(OC)cc1 : does composite z-score equal or exceed -0.09?
Result: f

Request: Check the entry Cc1ccc(S(=O)(=O)N[C@H]2COC(=O)[C@@H](C)COC(=O)[C@H](C)NC(=O)CC=C[C@H]2C)cc1 : does composite z-score equal or exceed -0.09?
Result: f

Request: Check the entry CCOC(=O)NN=C1C[C@@H](O)[C@@H](O)[C@@H]2[C@@H]3C(=O)N(Cc4ccc5c(c4)OCO5)C(=O)[C@@H]3CC[C@@H]12 : does composite z-score equal or exceed -0.09?
Result: f

Request: Check the entry CC(C)=NOC[C@@H](O)COCc1ccco1 : does composite z-score equal or exceed -0.09?
Result: t
